Tested on: pigweed, palmer
METHOD_NOTES: Test C postemergence
Type: in vivo, Amaranthus palmeri
EXPERIMENTAL_SETUP: Postemergence, 1000 g ai/ha, 10 days, visual 0 to 100 scale (0 no effect, 100 complete control)

# STRUCTURE_STRING, Plant response rating, Pigweed, Palmer
measured = [
    ("C[C@H]1CN(C(=O)c2cccc(-c3cn(C)cn3)c2)c2cccc(Cl)c2O1", 10),
    ("C[C@H]1CN(C(=O)c2cccc(-c3cnnn3C)c2)c2cccc(Cl)c2O1", 70),
    ("COc1ccc(-c2cccc(C(=O)N3C[C@H](C)Oc4c(Cl)cccc43)c2)cn1", 70),
    ("Cc1nsc(-c2cccc(C(=O)N3C[C@H](C)Oc4c(Cl)cccc43)c2)n1", 80),
    ("Cc1csc(-c2cccc(C(=O)N3C[C@H](C)Oc4c(C)cccc43)c2)c1", 0),
    ("Cc1ncc(-c2cccc(C(=O)N3C[C@H](C)Oc4c(Cl)cccc43)c2)s1", 90),
    ("Cc1cc(-c2cccc(C(=O)N3C[C@H](C)Oc4c(Cl)cccc43)c2)sn1", 90),
    ("Cc1cccc2c1O[C@@H](C)CN2C(=O)c1cccc(-c2cn(C)nn2)c1", 10),
    ("C[C@H]1CN(C(=O)c2cccc(-n3cccc3)c2)c2cccc(Cl)c2O1", 60),
    ("CCOC(=O)c1cncn1-c1cccc(C(=O)N2C[C@H](C)Oc3c(C)cccc32)c1", 0),
]

---

System: corn
METHOD_NOTES: Test A postemergence
Type: in vivo, Zea mays
EXPERIMENTAL_SETUP: 1000 g ai/ha, Postemergence; 0 to 100 scale

# COMPOUND, TEST_SYSTEM, Plant response rating, Corn
data = [
    ("CC1CN(C(=O)c2ccnc(-n3cncn3)c2)c2ccccc2O1 (stereo not shown)", "corn", 50),
    ("CCC1CN(C(=O)c2ccnc(-n3cncn3)c2)c2cccc(I)c2O1 (stereo not shown)", "corn", 0),
    ("C[C@H]1CN(C(=O)c2cccc(-n3cccn3)c2)c2cccc(Cl)c2O1", "corn", 0),
    ("Cc1cccc2c1OC(C)CN2C(=O)c1cccc(-n2cncn2)c1 (stereo not shown)", "corn", 90),
]

---

Overview of recorded Plant response rating, Wheat for various molecules
Test system: wheat
METHOD_NOTES: Test A postemergence
Format: in vivo, Triticum aestivum
EXPERIMENTAL_SETUP: 500 g ai/ha, postemergence, 10 days, visual injury, 0 to 100 scale (0 no effect, 100 complete control)
PROPERTY_LABEL: Plant response rating, Wheat

# MOLECULE, REPORTED_RESULT
rows = [
    ("Cc1cccc2c1O[C@@H](C)CN2C(=O)c1cccc(-n2cnc(C(F)(F)F)n2)c1 [Compound 66]", 20),
    ("CCOc1ccc(-n2cnc(C(C)C)n2)cc1C(=O)N1C[C@H](C)Oc2c(Cl)cccc21 [Compound 106]", 40),
    ("Cc1ccc(-n2cnc(C(C)(C)O)n2)cc1C(=O)N1C[C@H](C)Oc2c(Cl)cccc21 [Compound 149]", 90),
    ("C[C@H]1CN(C(=O)c2cc(-n3cncn3)ccc2C(F)(F)F)c2cccc(Cl)c2O1 [Compound 70]", 20),
    ("C[C@H]1CN(C(=O)c2cccc(-n3cnc(Br)n3)c2)c2cccc(Cl)c2O1 [Compound 85]", 10),
    ("CC(C)Oc1ccc(-n2cnc(C(C)C)n2)cc1C(=O)N1C[C@H](C)Oc2c(Cl)cccc21 [Compound 108]", 30),
    ("CCc1ccc(-n2cnc(C3CCC3)n2)cc1C(=O)N1C[C@H](C)Oc2c(Cl)cccc21 [Compound 104]", 10),
    ("Cc1cccc2c1O[C@@H](C)CN2C(=O)c1cccc(-n2cnc(COC(C)C)n2)c1 [Compound 135]", 50),
    ("CC(C)c1ncn(-c2ccc(OCC(F)(F)F)c(C(=O)N3C[C@H](C)Oc4c(Cl)cccc43)c2)n1 [Compound 141]", 20),
    ("CC(C)c1ncn(-c2ccc(O)c(C(=O)N3C[C@H](C)Oc4c(Cl)cccc43)c2)n1 [Compound 105]", 10),
    ("CC(C)c1ncn(-c2ccc(OC(F)(F)F)c(C(=O)N3C[C@H](C)Oc4c(Cl)cccc43)c2)n1 [Compound 111]", 40),
    ("COc1cc(C(=O)N2C[C@H](C)Oc3c(Cl)cccc32)cc(-n2cncn2)c1 [Compound 138]", 80),
    ("CC(C)c1ncn(-c2ccc(C#N)c(C(=O)N3C[C@H](C)Oc4c(Cl)cccc43)c2)n1 [Compound 140]", 60),
    ("COc1ccc(-n2cnc(C(C)(C)C)n2)cc1C(=O)N1C[C@H](C)Oc2c(Cl)cccc21 [Compound 83]", 40),
    ("COCCc1ncn(-c2cccc(C(=O)N3C[C@H](C)Oc4c(C)cccc43)c2)n1 [Compound 113]", 80),
    ("C[C@H]1CN(C(=O)c2cccc(-n3cnc(CC4CCCCC4)n3)c2)c2cccc(Cl)c2O1 [Compound 90]", 10),
]

Reference for the values: patent US20260262643A1
